Biological target: HCV NS3/4A protease complex, BMS strain (UniProt P27958, C1454S/C1711G, species not given/STRAIN_BMS)
Assay: Recombinant HCV NS3/4A protease complex FRET peptide assay (BMS strain)
Type: biochemical, HCV genotype 1a
Conditions: NS3/4A BMS strain; read-out: IC50 range
pIC50: −log10 of the molar value.
READOUT_KIND: pIC50

C=CC1C[C@]1(NC(=O)[C@@H]1C[C@@H](Oc2nc(-c3csc(N(CC)CC)n3)cc3cc(OC)ccc23)CN1C(=O)[C@@H](NC(=O)OC(C)(C)C)C(C)(C)C)C(=O)NS(=O)(=O)C1CC1 (some centres unmarked) ... > 7.00
C=C[C@@H]1C[C@]1(NC(=O)[C@@H]1C[C@@H](Oc2cc(C3CC3)nc3cc(OC)ccc23)CN1C(=O)[C@@H](NC(=O)OC(C)(C)C)C(C)(C)C)C(=O)NS(=O)(=O)C1CC1 ... > 7.00
C=C[C@@H]1C[C@]1(NC(=O)[C@@H]1C[C@@H](Oc2nccc3ccccc23)CN1C(=O)[C@@H](NC(=O)Oc1ccccc1OC)C(C)(C)C)C(=O)NS(=O)(=O)C1CC1 ... > 7.00
C=CC1C[C@]1(NC(=O)[C@@H]1C[C@@H](COc2cccc(-c3ccoc3)n2)CN1C(=O)[C@@H](NC(=O)OC)C(C)(C)C)C(=O)NS(=O)(=O)C1CC1 (some centres unmarked) ... 6.00 to 7.00

# ---- query compound ----
[in] pIC50 lookup needed for C=C[C@@H]1C[C@]1(NC(=O)[C@@H]1C[C@@H](Oc2nccc3cccc(C)c23)CN1C(=O)[C@@H](NC(=O)OC(C)(C)C)C(C)(C)C)C(=O)NS(=O)(=O)C1CC1 , thanks.
[out] 6.00 to 7.00

###

Target: HCV NS3/4A protease complex, BMS strain (UniProt P27958, C1454S/C1711G, species not given/STRAIN_BMS)
Assay: Recombinant HCV NS3/4A protease complex FRET peptide assay (BMS strain)
Format: biochemical, HCV genotype 1a
Details: NS3/4A BMS strain; read-out: IC50 range
pIC50: −log10 of the molar value.
Assignment: determine reported pIC50 for the given molecules.

As a guide, the following entries are already answered.
C=CC1C[C@]1(NC(=O)[C@@H]1C[C@@H](Oc2nccc(-c3ccccn3)n2)CN1C(=O)[C@@H](NC(=O)OC)C(C)(C)C)C(=O)NS(=O)(=O)C1CC1 (some centres unmarked) ... 6.00 to 7.00
C=C[C@@H]1C[C@]1(NC(=O)[C@@H]1CC(Oc2nccc3cc(OC)ccc23)CN1C(=O)[C@@H](NC(=O)N(C)OC)C(C)(C)C)C(=O)NS(=O)(=O)C1CC1 (some centres unmarked) ... > 7.00
C=C[C@@H]1CC1(NC(=O)[C@@H]1CC(Oc2nccc3cc(OC)ccc23)CN1C(=O)[C@@H](NC(=O)NC1CCCC1)C(C)(C)C)C(=O)NS(=O)(=O)C1CC1 (some centres unmarked) ... > 7.00
C=C[C@@H]1C[C@]1(NC(=O)[C@@H]1C[C@@H](Oc2nccc3cc(OC)ccc23)CN1C(=O)[C@@H](NC(=O)OC1(C)CCCC1)C(C)(C)C)C(=O)NS(=O)(=O)C1CCC1 ... > 7.00

[in] May I ask what pIC50 has been recorded for C=C[C@@H]1C[C@]1(NC(=O)[C@@H]1C[C@@H](Oc2nccc3cc(OC)ccc23)CN1C(=O)[C@@H](NC(=O)OC(C)(C)C)[C@@H](C)OCc1ccccc1)C(=O)NS(=O)(=O)C1CC1 ?
[out] > 7.00
